These data points were gathered from the supplement of paper PMC6555819.

Test system: VDR:RXRa (NR concentration 270 nM, RXRa partner concentration 90 nM)
assay-remarks: PBM binding z-score (relative to random genomic background probes); higher = stronger binding; sequences stand for … in GC…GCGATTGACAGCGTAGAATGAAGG
test-readout: PBM binding z-score
Output spec: single numeric token, no unit.

| residues | PBM binding z-score |
| --- | --- |
| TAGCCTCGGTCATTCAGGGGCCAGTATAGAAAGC | 0.169 |
| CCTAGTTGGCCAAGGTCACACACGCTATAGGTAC | 4.02 |
| CCTAGTTGGGCAGGAGGTCACACACCGGATATGA | 3.09 |

Here is the next item to consider.
Look up PBM binding z-score: TAGCCTAGGTCACGGGCCAGTATACCACGCGAAC
2.94

----------
System: PPARg:RXRa (NR concentration 180 nM, RXRa partner concentration 90 nM)
assay-remarks: PBM binding z-score (relative to random genomic background probes); higher = stronger binding; sequences stand for … in GC…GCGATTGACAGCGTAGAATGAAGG
test-readout: PBM binding z-score
Output spec: single numeric token, no unit.

Illustrative cases are given below, each with its answer.
| residues | assayed-target | val |
| --- | --- | --- |
| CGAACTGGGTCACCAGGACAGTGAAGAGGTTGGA | PPARg:RXRa (NR concentration 180 nM, RXRa partner concentration 90 nM) | 8.62 |
| CGTCAAAGTTCATGGTAACGTAACAGAAAGCAGC | PPARg:RXRa (NR concentration 180 nM, RXRa partner concentration 90 nM) | 5.02 |
| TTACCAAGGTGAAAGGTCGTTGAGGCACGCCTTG | PPARg:RXRa (NR concentration 180 nM, RXRa partner concentration 90 nM) | 9.39 |
| CCGAGTAGTTTACGAGGGGGCATTCAGTGCGAAT | PPARg:RXRa (NR concentration 180 nM, RXRa partner concentration 90 nM) | -0.276 |
| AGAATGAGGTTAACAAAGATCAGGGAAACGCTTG | PPARg:RXRa (NR concentration 180 nM, RXRa partner concentration 90 nM) | 2.62 |

Look up PBM binding z-score: ATCGAAAGGTCGCAGGTGAGTATACCCACCCGAA
4.34

Look up PBM binding z-score: TCTGCTAGGTCAACGATGGTCAGCGAATCTGCTA
2.51

Look up PBM binding z-score: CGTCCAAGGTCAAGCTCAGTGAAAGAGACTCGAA
5.25

Look up PBM binding z-score: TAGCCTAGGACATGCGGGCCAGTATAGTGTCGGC
0.232

Look up PBM binding z-score: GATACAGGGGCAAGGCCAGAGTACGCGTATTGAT
0.875

----------
System: PPARg:RXRa IVT, anti-PPARg (NR concentration 270 nM, RXRa partner concentration 90 nM)
assay-remarks: PBM binding z-score (relative to random genomic background probes); higher = stronger binding; sequences stand for … in GC…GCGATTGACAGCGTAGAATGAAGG
Consider the following sequences and their measured PBM binding z-score readings.
Output spec: single numeric token, no unit.

Illustrative cases are given below, each with its answer.
| residues | test-readout | val |
| --- | --- | --- |
| AGTCAAAGTTCAGGACGAGATAACGTAAAGCACG | PBM binding z-score | 1.35 |
| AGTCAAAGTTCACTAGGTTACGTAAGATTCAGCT | PBM binding z-score | 5.6 |
| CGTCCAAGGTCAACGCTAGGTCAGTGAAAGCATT | PBM binding z-score | 4.66 |
| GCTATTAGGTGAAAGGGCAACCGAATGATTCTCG | PBM binding z-score | 6.05 |

Tell me reported PBM binding z-score for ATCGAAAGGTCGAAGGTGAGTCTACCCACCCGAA , tested with PPARg:RXRa IVT, anti-PPARg (NR concentration 270 nM, RXRa partner concentration 90 nM).
2.34

Tell me reported PBM binding z-score for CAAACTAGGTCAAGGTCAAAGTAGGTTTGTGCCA , tested with PPARg:RXRa IVT, anti-PPARg (NR concentration 270 nM, RXRa partner concentration 90 nM).
8.96

Tell me reported PBM binding z-score for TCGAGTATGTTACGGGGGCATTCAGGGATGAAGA , tested with PPARg:RXRa IVT, anti-PPARg (NR concentration 270 nM, RXRa partner concentration 90 nM).
3.97
